Test system: MOLT-4
Experiment: NCI-60 cell line panel
Assay type: cell-based
Conditions: Homo sapiens, 48 hours
pIC50: −log10 of the molar value.
Measure: pIC50

                                   compound  experimental_target  result
0  O=C1OCC2=C1C(c1cccc(F)c1)c1cc3c(cc1N2CCO)OCO3 (stereo not shown) [SU056]               MOLT-4    5.52

* * *

System: RPMI-8226
Assay: NCI-60 cell line panel
Type: cell-based
Conditions: Homo sapiens, 48 hours
Measure: IC50

In [3]: df
Out[3]:
                                   molecule   result
0  O=C1OCC2=C1C(c1cccc(F)c1)c1cc3c(cc1N2CCO)OCO3 (stereo not shown)  2280 nM
